test: LAP4-GFP expression modulators in yeast, confirmation, cell-based, cherry picks, flow cytometry, mother/daughter gates (AID 2271);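 note: ratio of sample to DMSO plate mean so 100% equals DMSO level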; conditions: S. cerevisiae LAP4-GFP strain, 3 h, at 10 µM, stronger effect = higher value, 100 means same as DMSO control
Activity calls are given as the source filed them.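 Rule for the calls: active = GFP response above 150% of the DMSO control; inconclusive = fewer than 70 events counted in any yeast strain; inactive = the rest.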
Entries and their measured GFP response relative to DMSO follow.

Sample answers from the record:
compound=O=[N+]([O-])c1ccc(Sc2ccccc2)nc1 observedvalue="104% (inactive)"
compound=CC(C)C(=O)Nc1ccc(NC(=O)c2cc3ccccc3o2)cc1 observedvalue="102% (inactive)"
compound=Cc1nnc(NC(=O)c2ccc(S(=O)(=O)N3CCCCCC3)cc2)o1 observedvalue="97% (inactive)"
compound=COCCNc1c(-c2ccc(O)cc2)nc2ccc(Cl)cn12 observedvalue="99.2% (inactive)"
compound="CCCc1[nH]nc2c1C(c1ccc(OC)c(Cn3nnc4ccccc43)c1)C(C#N)=C(N)O2 (stereo unspecified)" observedvalue="104% (inactive)"

Now turn to the next compound.
Suppose we examine the compound `Fc1ccc(C2Nc3cccc4cccc(c34)N2)cc1` ; what GFP response relative to DMSO value has been reported?
106% (inactive)

----------
response for assorted compounds
assay: yeast V-ATPase proton transport modulators, S. cerevisiae, pHLuorin, HTS validation (AID 504600);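 note: plate controls were DMSO for no effect and reference compound for full effect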; details: S. cerevisiae pHLuorin cytosolic pH, at 10 µM, stronger effect = higher value
Active and inactive are the calls of the source. Cut-off read from the data, not from the text of the source: active = response above about 15%; inactive = the rest.

As a guide, the following entries are already answered.
compound="CCC(C)NCCOCCOc1ccc(Cl)c2ccccc12 (stereo unspecified)" observedvalue="-0.59% (inactive)"
compound=COc1ccc(Cl)cc1C(=O)NCCc1ccc(S(=O)(=O)NC(=O)NC2CCCCC2)cc1 observedvalue="-2.06% (inactive)"
compound="CN(C)c1ccc(O)c2c1CC1CC3[C@@H](N(C)C)C(=O)C(C(N)=O)=C(O)[C@]3(O)C(=O)C1=C2O (stereo partly specified)" observedvalue="-2.16% (inactive)"
compound=COc1cccc(CN2CCN(C(=O)c3ccc(-c4ccccc4)cc3)CC2)c1 observedvalue="5.01% (inactive)"
compound=CCCNC(=O)NS(=O)(=O)c1ccc(Cl)cc1 observedvalue="-3.28% (inactive)"

Turning now to a further compound:
For the compound CCOC(=O)NN1C(=O)c2ccccc2NC1c1ccc(OC)c(OC)c1 (stereo unspecified) , what response is on record?
-6.37% (inactive)

----------
assay: modulators of MEP2-GFP levels in yeast, confirmation, S. cerevisiae, flow cytometry GFP, cherry picks (AID 2272);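 note: ratio of well signal to plate DMSO mean so 100% equals DMSO level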; conditions: S. cerevisiae MEP2-GFP strain, 3 h, at 10 µM, stronger effect = higher value
readoutName: GFP response vs DMSO (%)
Give a bare numeral; the unit % is implied.

The cases that follow already have their GFP response vs DMSO on record.
compound=COc1ccc(N2CCN(c3nc4c(C)cccn4c(=O)c3/C=C(\C#N)C(N)=O)CC2)cc1 readoutname="GFP response vs DMSO" observedvalue=103
compound="Cc1cccc(NC(c2ccc(C)s2)c2ccc3ccc(C)nc3c2O)n1 (stereo not given)" readoutname="GFP response vs DMSO" observedvalue=114
compound="Cc1cccn2c(=O)c(/C=C(\\C#N)C(=O)NC3CCS(=O)(=O)C3)c(N3CCC(C)CC3)nc12 (stereo not given)" readoutname="GFP response vs DMSO" observedvalue=102

Quick check: GFP response vs DMSO of `COc1ccccc1-c1noc(CCC(=O)Nc2cccc(C)c2)n1` ?
97.5

Fill in: GFP response vs DMSO of `N#C/C(=C\c1c(N2CCCCCC2)nc2ccccn2c1=O)C(=O)NCc1ccco1` is ___
98.3

GFP response vs DMSO for `O=C(c1cc([N+](=O)[O-])cc([N+](=O)[O-])c1)N(Cc1nnc(-c2ccccc2Cl)o1)C1CC1` ?
102

// query GFP response vs DMSO value for entry CCN=C(NCC)SC1CC(=O)N(c2cccc(OCC)c2)C1=O (stereo not given)
100

What measured GFP response vs DMSO goes with `O=C(CCc1ccc(S(=O)(=O)N2CCOCC2)cc1)Oc1ccccc1` ?
123

Reported GFP response vs DMSO for `COc1ccc(-c2noc(CCCc3ccccc3)n2)cc1OC` : what is it?
104

// returns reported GFP response vs DMSO for input `CC(=O)c1ccc2c3c(cccc13)C(=O)N(c1c(C)nn(C)c1C)C2=O`
102

----------
test: LAP4-GFP expression modulators in yeast, confirmation, cell-based, cherry picks, flow cytometry, mother/daughter gates (AID 2271);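 note: ratio of sample to DMSO plate mean so 100% equals DMSO level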; details: S. cerevisiae LAP4-GFP strain, 3 h, measured here: mother cell gate response, at 10 µM, stronger effect = higher value, 100 means same as DMSO control
readoutName: GFP response relative to DMSO (%)
# value in %; strip the unit string

Some compounds with recorded GFP response relative to DMSO:
compound=COc1cccc(NC(=O)c2ccc3c(c2)CCCC3)c1 observedvalue=99.3
compound=CCC(=O)Nc1cccc(C(=O)/C=C/c2ccccc2)c1 observedvalue=106
compound=N/C(Cc1ccc(Cl)cc1Cl)=N\OC(=O)c1ccccc1 observedvalue=213

Find the recorded GFP response relative to DMSO belonging to `CCOc1ccc2ccccc2c1C(=O)N1CCN(c2ccccc2)CC1` and report it.
105

// returns reported GFP response relative to DMSO for input `CCOC(=O)CNc1c(-c2ccc(O)cc2)nc2ccc(Cl)cn12`
97.5

What measured GFP response relative to DMSO goes with `COc1cc(NC(=O)c2ccc(C)cc2)ccc1NC(=O)c1cc2ccccc2o1` ?
91

What does the data say about its GFP response relative to DMSO? Entry: `CN1C(=O)c2cccc3c(Cl)ccc(c23)C1=O`
107

Which GFP response relative to DMSO value is on record for `CSC1=NC(=O)/C(=C/c2ccc(SC)cc2)S1` ?
134

Please report the recorded GFP response relative to DMSO for `CCc1ccc(-c2csc(NC(=O)COC(=O)CCc3nc4ccccc4s3)n2)cc1` .
98.4

What measured GFP response relative to DMSO goes with `CCOC(=O)c1ccccc1NC(=O)c1c(O)c2ccccc2n(CC)c1=O` ?
98.3

Field request: GFP response relative to DMSO | item: CCOC(=O)C(N)CSC1CC(=O)N(c2ccc(C(=O)OC)cc2)C1=O (stereo unspecified)
101

----------
experiment: LAP4-GFP expression modulators in yeast, confirmation, cell-based, cherry picks, flow cytometry, mother/daughter gates (AID 2271);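 note: ratio of sample to DMSO plate mean so 100% equals DMSO level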; details: S. cerevisiae LAP4-GFP strain, 3 h, measured here: mother cell gate response, at 10 µM, stronger effect = higher value, 100 means same as DMSO control
The following molecules are listed with their measured GFP response relative to DMSO values.
Please give a number only; it is taken to be in %.

molecule="Cc1cccc(NC(c2ccc(C)s2)c2ccc3ccc(C)nc3c2O)n1 (configuration not stated)" readoutname="GFP response relative to DMSO" outputunit=% observedvalue=134
molecule=Cc1ccc(NC(=O)c2ccc(Cl)c(N3C(=O)C=CC3=O)c2)cc1 readoutname="GFP response relative to DMSO" outputunit=% observedvalue=186
molecule="COc1ccc(C(=O)C2CCCN(C(=O)c3cccs3)C2)cc1F (configuration not stated)" readoutname="GFP response relative to DMSO" outputunit=% observedvalue=98.4
molecule=O=C(Oc1oc(-c2ccco2)nc1C=Nc1ccc(Cl)cc1)c1ccco1 readoutname="GFP response relative to DMSO" outputunit=% observedvalue=188
molecule="N#C/C(=C\\c1c(N2CCCCCC2)nc2ccccn2c1=O)C(=O)NC1CCS(=O)(=O)C1 (configuration not stated)" readoutname="GFP response relative to DMSO" outputunit=% observedvalue=103

Data request, read-out GFP response relative to DMSO, for `C=CCn1c(=N)c(C#N)cc2c(=O)n3ccccc3nc21`
98.3

Fill in: GFP response relative to DMSO of `CCc1oc2ccccc2c1C(=O)CCN1CCCCC1` is ___
103

----------
assay: LAP4-GFP expression modulators in yeast, confirmation, cell-based, cherry picks, flow cytometry, mother/daughter gates (AID 2271);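 note: ratio of sample to DMSO plate mean so 100% equals DMSO level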; conditions: S. cerevisiae LAP4-GFP strain, 3 h, at 10 µM, 100 means same as DMSO control
Active and inactive are the calls of the source.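 How the source made its calls: active means GFP response above 150% of the DMSO control; inconclusive means fewer than 70 events counted in any yeast strain; inactive means the rest.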
Write down the outcome that applies. Available outcomes: Y for active, N for inactive

# count of solved cases: 3
compound=COc1ccc(/C=N/c2c(-c3ccco3)nc3ccccn23)cc1OC classname=N
compound=CCc1ccc(C(=O)COC(=O)c2n[nH]c3ccccc23)cc1 classname=N
compound="O=C(Nc1c2c(nn1-c1ccccc1)CS(=O)C2)c1ccco1 (stereo unspecified)" classname=N

Which outcome was assigned to `O=C(Nc1cccc(Cl)c1N1CCCC1)c1ccc([N+](=O)[O-])o1` in this test?
N

Name the outcome recorded for `O=C(O)CCc1ccc(-c2ccccc2)o1` in the assay.
N

Per the records of this test, what outcome belongs to `Cc1ccc(C=C2C(Cl)=C(Cl)C(Cl)=C2Cl)cc1` ?
N

Lab log entry: `CCOc1ccccc1N1CCN(C(=O)c2cccc(-c3ccc(O)cc3)c2)CC1` — outcome as called in the assay?
N

So what was the verdict on CCOc1ccc(C(Nc2cccnc2)c2cc(Cl)c3cccnc3c2O)cc1 (stereo unspecified) in this test?
Y

What did the test return for `N#C/C(=C\c1c(N(Cc2ccccc2)Cc2ccccc2)nc2ccccn2c1=O)C(N)=O` ?
N

Any idea what this test logged for Cc1ccc(NC(=S)N2CCSC2c2cccs2)cc1 (stereo unspecified) ?
N

Short answer needed: outcome of this test for `Cc1noc(/C=C/c2cccnc2)c1[N+](=O)[O-]` ?
N
